Tested on: P. aeruginosa 2297-con (AmpC derepressed)
ASSAY DETAILS: MIC determination, broth microdilution (CLSI)
Format: cell-based
CONDITIONS: strain 8
QUANTITY NAME: strain 8 MIC
Include the unit after the number when you answer.

Answered cases to consult:
Enquiry: Any idea what its strain 8 MIC is? The compound is CC1(C)[C@H](NC(=O)/C(=N\OC(COc2ccc(C(=N)N)cc2)C(=O)O)c2csc(N)n2)C(=O)N1OS(=O)(=O)O (mixture of isomers) [Example 27A]
Return: 4 µg/mL

Enquiry: Any idea what its strain 8 MIC is? The compound is CC1(C)[C@H](NC(=O)/C(=N\OC(COc2ccc(C(=N)N)nc2)C(=O)O)c2csc(N)n2)C(=O)N1OS(=O)(=O)O (mixture of isomers) [Example 36B]
Return: 32 µg/mL

Enquiry: Any idea what its strain 8 MIC is? The compound is CC1(C)[C@H](NC(=O)/C(=N\OC(CO)COc2ccc(C(=N)N)cc2)c2csc(N)n2)C(=O)N1OS(=O)(=O)O (mixture of isomers) [Example 45B]
Return: 32 µg/mL

Enquiry: Any idea what its strain 8 MIC is? The compound is CC1(C)[C@H](NC(=O)/C(=N\OC(COc2ccc(C(=N)NCCN)cc2)C(=O)O)c2csc(N)n2)C(=O)N1OS(=O)(=O)O (mixture of isomers) [Example 44B]
Return: 8 µg/mL

Now look at this entry.
Enquiry: Any idea what its strain 8 MIC is? The compound is CC1(C)[C@H](NC(=O)/C(=N\OC(COc2ccc(C(=N)NCCN)cc2)C(=O)O)c2csc(N)n2)C(=O)N1OS(=O)(=O)O (mixture of isomers) [Example 44A]
Return: 1 µg/mL
